pKd: −log10 of the molar value.
Assign pKd to each entry below.

// returns pKd for `CCOc1cc2ncc(C#N)c(Nc3ccc(F)c(Cl)c3)c2cc1NC(=O)/C=C/CN(C)C` with PAK6 (Homo sapiens); value = ≤ 5.00

Measured pKd (PAK6 (Homo sapiens)), entry `Nc1nc(Nc2ccc(S(N)(=O)=O)cc2)nn1C(=O)c1c(F)cccc1F` : > 5.30

###

# target or test system: PAK1 (Homo sapiens, UniProt Q13153)
# Sequence (Q13153 whole entry): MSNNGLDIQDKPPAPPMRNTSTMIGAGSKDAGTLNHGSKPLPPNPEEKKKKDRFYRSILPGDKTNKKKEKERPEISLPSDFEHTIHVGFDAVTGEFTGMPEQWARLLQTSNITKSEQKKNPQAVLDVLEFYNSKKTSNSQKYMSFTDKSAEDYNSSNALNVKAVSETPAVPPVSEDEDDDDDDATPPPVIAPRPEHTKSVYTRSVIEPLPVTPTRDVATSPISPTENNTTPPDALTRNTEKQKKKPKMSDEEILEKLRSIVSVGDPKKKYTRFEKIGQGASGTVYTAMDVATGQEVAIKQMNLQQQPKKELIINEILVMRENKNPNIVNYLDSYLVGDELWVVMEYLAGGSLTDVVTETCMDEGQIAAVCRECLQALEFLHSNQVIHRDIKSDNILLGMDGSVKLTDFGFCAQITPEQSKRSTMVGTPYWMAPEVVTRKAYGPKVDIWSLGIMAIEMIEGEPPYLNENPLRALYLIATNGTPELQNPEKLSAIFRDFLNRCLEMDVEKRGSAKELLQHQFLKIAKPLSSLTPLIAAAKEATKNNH
# assay summary: Competitive binding assay (phage-displayed kinase vs immobilized staurosporine bait), PAK1
# condition summary: PAK Inhibitor Affinity Assay; read-out: Kd PAK1
pKd: −log10 of the molar value.
quantity kind: pKd

Form: compound = `CCOc1cc2ncc(C#N)c(Nc3ccc(F)c(Cl)c3)c2cc1NC(=O)/C=C/CN(C)C` ; pKd = > 5.30

###

pKd: −log10 of the molar value.
quantity kind: pKd

Response field pKd (UniProtKB Q9P286) for item CCOc1cc2ncc(C#N)c(Nc3ccc(F)c(Cl)c3)c2cc1NC(=O)/C=C/CN(C)C [EKB-569] : ≤ 5.00

###

# target or test system: PAK4 (Homo sapiens)
# Sequence (O96013 whole entry): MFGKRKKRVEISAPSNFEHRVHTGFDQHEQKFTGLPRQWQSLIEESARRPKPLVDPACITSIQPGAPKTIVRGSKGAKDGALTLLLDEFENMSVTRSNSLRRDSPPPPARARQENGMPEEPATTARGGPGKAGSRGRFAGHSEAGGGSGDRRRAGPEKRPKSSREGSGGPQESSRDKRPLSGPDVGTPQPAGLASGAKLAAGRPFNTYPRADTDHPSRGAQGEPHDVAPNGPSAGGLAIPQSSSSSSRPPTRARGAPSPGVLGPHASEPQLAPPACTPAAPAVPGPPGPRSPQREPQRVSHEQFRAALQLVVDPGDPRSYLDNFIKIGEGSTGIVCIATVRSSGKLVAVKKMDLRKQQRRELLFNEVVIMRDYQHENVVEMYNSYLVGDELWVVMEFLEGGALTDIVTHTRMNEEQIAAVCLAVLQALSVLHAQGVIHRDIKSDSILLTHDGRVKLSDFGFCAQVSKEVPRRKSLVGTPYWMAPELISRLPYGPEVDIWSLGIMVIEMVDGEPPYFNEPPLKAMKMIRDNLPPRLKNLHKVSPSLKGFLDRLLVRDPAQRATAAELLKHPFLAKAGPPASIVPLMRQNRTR
quantity kind: Kd

Just so you know, measured Kd for CCOc1cc2ncc(C#N)c(Nc3ccc(F)c(Cl)c3)c2cc1NC(=O)/C=C/CN(C)C [EKB-569] came out at ≥ 10 µM

###

# target or test system: PAK1 (Homo sapiens, UniProt Q13153)
# assay summary: Competitive binding assay (phage-displayed kinase vs immobilized staurosporine bait), PAK1
quantity kind: Kd

Known value: PAK1 (Homo sapiens, UniProt Q13153) Kd of the compound Nc1nc(Nc2ccc(S(N)(=O)=O)cc2)nn1C(=O)c1c(F)cccc1F [JNJ-7706621] equals ≥ 10 µM

Where these numbers come from: patent US20100317715A1
